pIC50: −log10 of the molar value.
Please find below pIC50 data on Beta-secretase 1 (Homo sapiens) compiled from the literature.
value-type: pIC50

| compound | result |
| --- | --- |
| N#CCCCNC(=N)NC(=O)Cn1c(-c2ccccc2)ccc1C12CC3CC(CC(C3)C1)C2 | 6.59 |
| COc1cccc(CNC[C@H](Cc2ccccc2)n2cc(-c3cc(C(=O)N[C@H](C)c4ccccc4)cc(N(C)S(C)(=O)=O)c3)nn2)c1 | 5.15 |
| COc1ccc(-c2cccc(C3(c4ccccc4)N=C(N)N(C)C3=O)c2)c(OC)c1 (centres undefined) | 5.80 |
| COc1cc(OC)cc(-c2ccc(Cc3cn(Cc4cc(F)cc(F)c4)c(N)n3)cc2)c1 | 5.14 |

----------
Please find below IC50 data on Beta-secretase 1 (Homo sapiens, UniProt P56817) compiled from the literature.
Sequence (P56817 whole entry): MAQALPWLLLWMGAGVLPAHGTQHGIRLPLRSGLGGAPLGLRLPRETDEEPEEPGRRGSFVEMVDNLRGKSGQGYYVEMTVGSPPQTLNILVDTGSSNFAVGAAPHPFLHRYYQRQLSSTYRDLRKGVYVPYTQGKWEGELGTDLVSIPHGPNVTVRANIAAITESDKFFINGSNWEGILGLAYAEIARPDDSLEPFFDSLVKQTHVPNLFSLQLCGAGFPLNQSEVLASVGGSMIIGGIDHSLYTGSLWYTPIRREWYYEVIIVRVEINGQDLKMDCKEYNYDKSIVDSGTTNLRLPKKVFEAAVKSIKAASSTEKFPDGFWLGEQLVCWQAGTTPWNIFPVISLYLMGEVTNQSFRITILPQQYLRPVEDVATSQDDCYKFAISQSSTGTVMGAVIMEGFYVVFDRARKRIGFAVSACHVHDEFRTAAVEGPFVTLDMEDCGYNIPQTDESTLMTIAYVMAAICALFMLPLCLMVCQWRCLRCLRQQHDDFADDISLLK
value-type: IC50

| molecule | target-desc | value-type | result |
| --- | --- | --- | --- |
| CN1C(=O)C(c2ccccc2)(c2cccc(-c3cccc(-c4ccccc4)c3)c2)N=C1N (stereo not drawn) | Beta-secretase 1 (Homo sapiens, UniProt P56817) | IC50 | > 10 µM |
| CSCC[C@H](NC(=O)[C@@H](NC(=O)OC(C)(C)C)C(C)C)C(=O)NC(CC(C)C)[C@@H](O)CC(=O)N[C@@H](C(=O)NCc1ccncc1)C(C)C (stereo partly drawn) | Beta-secretase 1 (Homo sapiens, UniProt P56817) | IC50 | > 100 µM |
| O=C(Cc1ccccc1Cl)Nc1cc(Br)ccc1OCCN1CCCCC1 | Beta-secretase 1 (Homo sapiens, UniProt P56817) | IC50 | > 44.2 µM |

----------
Please find below IC50 data on Beta-secretase 1 (Homo sapiens, UniProt P56817) compiled from the literature.

| compound | relational-operator | IC50 / µM |
| --- | --- | --- |
| Cc1cc(C)c(-c2cccc(C3(c4ccccc4)N=C(N)N(C)C3=O)c2)c(C)c1 (stereo not given) | > | 10 |
| Cc1ccc(NC(=O)c2cccc(NC(=O)C[n+]3cccc(C(=O)NCCc4ccccc4)c3)c2)cc1 | = | 4 |
| O=C(Nc1cc(Br)ccc1N1CCN(Cc2ccccc2)CC1)c1cccc2ccccc12 | = | 5 |
| Cc1ccc(N(CC(O)Cn2c3ccccc3c3ccccc32)C(=O)c2ccccc2)cc1 (stereo not given) | > | 10 |
| C=C1C[C@@H]([C@H](O)[C@H](CC(C)C)NC(=O)[C@H](CCSC)NC(=O)[C@H](CC(C)C)NC(C)=O)[C@H](C(=O)N[C@@H](C)C(=O)O)C1 | > | 10 |
